Can you tell me TGI for the items I'm about to list?
tested on: SK-MEL-2 melanoma; assay: NCI tumour cell line growth inhibition, 48 h
Unit µM implied. Number only.

Data request: Lab request: please report TGI under test system SK-MEL-2 melanoma for "COc1ccc(S(=O)(=O)N/N=C/C(=O)O)cc1"
Data returned: 826

Data request: What do we get for "COc1ccc(C[C@H]2C[C@@H](O)[C@@H](C)C/C=C/Cc3cccc(O)c3C(=O)O2)cn1" ?
Data returned: 34.5

Data request: Also, "Cc1nnc([S-])s1.[Au+].c1ccc([PH+](c2ccccc2)c2ccccc2)cc1" please.
Data returned: 3.11

Data request: Do the same for COc1cc(C(c2cc3c(cc2O)OCO3)N2CCCC2)cc(OC)c1OC (configuration not stated) please
Data returned: 40

Data request: Follow-up entry: "C#CC(C)(C)Oc1cc(OC)c2c(=O)c3ccccc3n(C)c2c1"
Data returned: 35.7

Data request: Try the compound "CN(C)c1ccc(C(=NNC(=O)c2cc3ccccc3[nH]2)c2ccc(N(C)C)cc2)cc1"
Data returned: 3.97

Data request: Try this compound too: "O=C1OC(c2ccc(O)cc2)(c2ccc(O)cc2)c2cccc3cccc1c23"
Data returned: 31.2

Data request: Follow-up entry: Cc1ccc(C2=Nc3c(N)ncnc3NC(c3cccc(Nc4ccnc5cc(C(F)(F)F)ccc45)c3)C2)cc1 (configuration not stated)
Data returned: 5.15

Data request: Try this compound too: "COc1cccc(-c2nn(-c3ccccc3)cc2-c2ccnc(NCCNC(=O)Nc3ccc(Cl)c(Cl)c3)c2)c1"
Data returned: 5.17
